Assay System: T1, recombinant human aggregated full-length TDP-43 (human, UniProt Q13148 1-414)
T1 construct: also called aggregated TDP-43; aggregated FL TDP-43
T1 sequence (Q13148 whole entry): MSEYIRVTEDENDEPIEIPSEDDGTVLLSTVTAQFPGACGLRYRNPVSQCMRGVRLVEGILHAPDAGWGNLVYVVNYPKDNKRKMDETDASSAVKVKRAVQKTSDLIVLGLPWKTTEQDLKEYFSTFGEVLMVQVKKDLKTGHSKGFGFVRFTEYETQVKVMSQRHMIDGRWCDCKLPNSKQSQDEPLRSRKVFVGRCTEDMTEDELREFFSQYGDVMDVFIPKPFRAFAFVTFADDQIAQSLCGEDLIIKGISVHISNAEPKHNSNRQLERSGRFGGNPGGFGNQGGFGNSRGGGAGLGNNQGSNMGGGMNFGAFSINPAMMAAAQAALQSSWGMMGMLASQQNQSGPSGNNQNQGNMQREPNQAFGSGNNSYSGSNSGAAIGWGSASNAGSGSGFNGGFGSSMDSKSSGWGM
Method Notes: SPR, immobilized aggregated TDP-43
Here, each record is paired with measured koff data.
The reply should be a number in s⁻¹, with the unit left off.

Look over these answered cases.
- ACI-7069-646B7-Ab1 (antibody, mouse IgG2b, V domains shown, Mouse IgG2b, kappa, from hybridoma; also called 646B7F7) VH: QVQLKESGPGLVAPSQSLSITCTVSGFSLTNFGVHWVRQPPGKGLEWLGIMWAGGSTNYNSALMSRLSISKDNSKSQVFLKMNSLQTDDTAMYYCVIYKTGFAYWGQGTLVTVSA VL: DVLMTQTPLSLPVSLGDQASISCRSSQSIVHAIGNTYLEWYLQKPGQSPKLLIYKVSNRFSGVPDRFSGSGSGTDFTLKISRVEAEDLGVYYCFQGSHVPFTFGSGTKLEIK: 0.000184
- ACI-7069-636E5-Ab1 (antibody, mouse IgG2b, V domains shown, Mouse IgG2b, lambda, from hybridoma; also called 636E5B8) VH: EVHLVESGGDLVMPGGSLKLSCAASGFTFSNYGMSWVRQTPDKRLEWVATISSGGKYINYLDSLKGRFTISRDNAKNTLYLQMSSLKSEDTAMYYCAKDYGSGWAWFAYWGQGTLVTVSA VL: QLVLTQSSSASFSLGASAKLTCTLSSQHSTYTIEWYQQQPLKPPKYVMELKKDGSHSTGDGIPDRFSGSSSGADRYLSISNIQPEDEAIYICGVGDTIKEQFVYVFGGGTKVTVL: 0.000274

Continue with the binder presented below.
Request the reported koff associated with ACI-7069-642D12-Ab1 (antibody, mouse IgG2b, V domains shown, Mouse IgG2b, kappa, from hybridoma; also called 642D12B4) VH: EVQLQQSGAELVKPGASVRLSCTASGFNIKDPYMHWVRQRPKQGLEWIGRIDPADGNTKYDPKFQGKATLTADTSSNVAYLHLSSLTSEDTAVYYCARFYGSSHWYFDVWGAGTTVTVSS VL: DIKMTQSPSSMYASLGERVTITCKASQDIKRYLSWYQQKPWKSPKILIYYATSLADGVPSRFSGTGSGQDYSLTISSLESDDVATYYCLQQGESPYTFGGGTKLEIK
0.000131
